Reference for the values: patent US20200339625A1

- System: mice bearing PSMA-expressing LNCAP cancer xenografts
- test.summary: Biodistribution of 68Ga-labeled compounds
- Assay type: in vivo
- condition.description: 3 h post-injection
Each entry below carries its recorded Tumor uptake.
Give the quantity in % ID/g, number only.

Cc1ccc(CCCC(=O)NCC(=O)N[C@@H](CCCCNC(=O)CN2CCN(CC(=O)[O-])CCN(CC(=O)[O-])CCN(CC(=O)[O-])CC2)C(=O)NC[C@H]2CC[C@H](C(=O)N[C@@H](Cc3ccc4ccccc4c3)C(=O)NCCCC[C@H](NC(=O)N[C@@H](CCC(=O)O)C(=O)O)C(=O)O)CC2)cc1.[68Ga+3] [^68Ga-HTK03090] : 16.9

Next compound, Tumor uptake to be filled in.
*Q* If you can, please state the reported Tumor uptake value of Nc1ccc(CCCC(=O)NCC(=O)N[C@@H](CCCCNC(=O)CN2CCN(CC(=O)[O-])CCN(CC(=O)[O-])CCN(CC(=O)[O-])CC2)C(=O)NC[C@H]2CC[C@H](C(=O)N[C@@H](Cc3ccc4ccccc4c3)C(=O)NCCCC[C@H](NC(=O)N[C@@H](CCC(=O)O)C(=O)O)C(=O)O)CC2)cc1.[68Ga+3] [^68Ga-HTK03087] .
*A* 20.4
